Collected normalized growth values appear next to each entry.
# Assay Text: chemical genetic growth profiling, strain panel (AID 1159580);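 also: tested at 20 µM; growth read once vehicle control cultures reached saturation at 30 °C; 1 = growth at the plate median or of vehicle wells; lower values mean less growth of the strain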
# Condition Set: S. cerevisiae deletion strains, growth OD, locus YAL013W, strain DEP1, hits give low values
The whole screen tested about 5,500 compounds, of which about 2,000 (36%) were called active. Another 18% or so got no clear call; they are omitted. The list shows a part of the results.

{"Compound": "Cc1ccc(C(C)C)c(O)c1C(=O)O", "normalized growth": 0.993}
{"Compound": "NCCS(=O)O", "normalized growth": 1.01}
{"Compound": "CCc1ccc2c(O)c3c(cc2c1C(=O)OC)C(=O)c1c(O)ccc(O)c1C3=O", "normalized growth": 0.989}
{"Compound": "O=C1NC(=S)NC(=O)C1=Cc1cccc2ccccc12", "normalized growth": 0.975}
{"Compound": "NC(=S)CS(=O)(=O)c1ccc(C(F)(F)F)cc1", "normalized growth": 0.977}
{"Compound": "N#C/C(=C\\c1c[nH]c2ccccc12)C(=O)c1ccc(O)c(O)c1", "normalized growth": 1.02}
{"Compound": "O=C(Oc1ccccc1C(=O)O)c1ccccc1O", "normalized growth": 0.985}
{"Compound": "Oc1ccc2c3c1OC1[C@@H](O)CC[C@@]4(O)[C@@H](C2)N(CC2CCC2)CC[C@]314 (some centres not stated)", "normalized growth": 1.01}
{"Compound": "CC1CCCC(C)N1NC(=O)c1ccc(Cl)c(S(N)(=O)=O)c1 (configuration not stated)", "normalized growth": 1}
{"Compound": "COC(=O)C(N)CS (configuration not stated)", "normalized growth": 0.991}
{"Compound": "Cc1ccccc1N1C(=O)c2cc(S(N)(=O)=O)c(Cl)cc2NC1C (configuration not stated)", "normalized growth": 0.989}
{"Compound": "O=C1CC(=O)CC(c2ccc(Cl)c(Cl)c2)C1", "normalized growth": 0.982}

---

// normalized growth lookup, one value per entry
# Assay Text: chemical genetic growth profiling, strain panel (AID 1159580)
# Condition Set: S. cerevisiae deletion strains, growth OD, locus YOR231W, strain MKK1, hits give low values
The whole screen tested about 5,500 compounds, of which about 2,000 (36%) were called active. About 18% were inconclusive and are not listed. The list shows a part of the results.
Reported Property: normalized growth

{"Molecule": "CC(=O)OCC(=O)[C@@]1(O)CCC2C3C[C@H](C)C4=CC(=O)C=CC4(C)C3[C@@H](O)CC21C (some centres undefined)", "Reported Property": "normalized growth", "Number": 1.02}
{"Molecule": "Oc1ccc([C@H]2Oc3cc(O)cc(O)c3C[C@H]2O)cc1", "Reported Property": "normalized growth", "Number": 0.978}
{"Molecule": "CC1(C)O[C@@H]2CC3C4C[C@H](F)C5=CC(=O)CC[C@]5(C)C4[C@@H](O)C[C@]3(C)[C@]2(C(=O)CO)O1 (some centres undefined)", "Reported Property": "normalized growth", "Number": 1.03}
{"Molecule": "FC(F)(F)Oc1ccc(OCc2n[nH]c(=S)n2-c2ccc(Cl)cc2)cc1", "Reported Property": "normalized growth", "Number": 1.09}
{"Molecule": "FC(F)(F)Sc1ccc(OCc2n[nH]c(=S)n2-c2ccccc2)cc1", "Reported Property": "normalized growth", "Number": 0.907}
{"Molecule": "C/C=C/CC(C)C(O)C1C(=O)NC(CC)C(=O)N(C)CC(=O)N(C)C(CC(C)C)C(=O)NC(C(C)C)C(=O)N(C)C(CC(C)C)C(=O)NC(C)C(=O)NC(C)C(=O)N(C)C(CC(C)C)C(=O)N(C)C(CC(C)C)C(=O)N(C)C(C(C)C)C(=O)N1C (centres undefined)", "Reported Property": "normalized growth", "Number": 0.975}
{"Molecule": "NCCCC(O)(P(=O)(O)O)P(=O)(O)O", "Reported Property": "normalized growth", "Number": 0.989}
{"Molecule": "NCCCCN", "Reported Property": "normalized growth", "Number": 0.957}
{"Molecule": "O=c1c(O)cc([C@H]2Oc3cc(O)cc(O)c3C[C@H]2O)cc2c([C@H]3Oc4cc(O)cc(O)c4C[C@H]3O)cc(O)c(O)c12", "Reported Property": "normalized growth", "Number": 1.01}

---

# Assay Text: chemical genetic growth profiling, strain panel (AID 1159580);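 also: tested at 20 µM; growth read once vehicle control cultures reached saturation at 30 °C; 1 = growth at the plate median or of vehicle wells; lower values mean less growth of the strain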
# Condition Set: S. cerevisiae deletion strains, growth OD, locus YKL009W, strain mrt4, hits give low values
Out of some 5,500 compounds screened, about 2,000 (36%) were called active. Inconclusive results (about 18%) are left out. Some of the results follow.

{"Compound": "COc1ccccc1N1CCN(CCCNc2cc(=O)n(C)c(=O)n2C)CC1", "normalized growth": 0.976}
{"Compound": "CC1(C)S[C@@H]2[C@H](NC(=O)C(C(=O)O)c3ccccc3)C(=O)N2[C@H]1C(=O)O (stereo partly specified)", "normalized growth": 0.971}
{"Compound": "NCC(O)CC(=O)O (stereo unspecified)", "normalized growth": 0.991}
{"Compound": "COc1cccc2c1CCC1=CC(=O)CC[C@@]12C", "normalized growth": 0.98}
{"Compound": "CC(=O)[C@@]1(O)CCC2C3C=C(Cl)C4=CC(=O)[C@@H]5CC5[C@]4(C)C3CC[C@@]21C (stereo partly specified)", "normalized growth": 0.999}
{"Compound": "COc1cc(C)c2c(=O)c3c(O)cc(O)cc3oc2c1", "normalized growth": 0.911}

---

# Assay Text: chemical genetic growth profiling, strain panel (AID 1159580);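 also: tested at 20 µM; growth read once vehicle control cultures reached saturation at 30 °C; 1 = growth at the plate median or of vehicle wells; lower values mean less growth of the strain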
# Condition Set: S. cerevisiae deletion strains, growth OD, locus YLR342W, strain FKS1, hits give low values
Hit rate of the full screen: of about 5,500 compounds, about 2,000 (36%) were called active. Another 18% or so got no clear call; they are omitted. This is one part of the list.
# normalized growth per entry

{"Molecule": "C[C@@H]1CCC2[C@](C)(CO)[C@@H](O)CC[C@]2(C)[C@@]12CC[C@@](CO)(CCO)O2 (stereo not given in full)", "normalized growth": 0.969}
{"Molecule": "Nc1nc(/C(=C/CC(=O)O)C(=O)N[C@@H]2C(=O)N3C(C(=O)O)=CCS[C@H]23)cs1", "normalized growth": 1.01}
{"Molecule": "Cc1c(OCC(F)(F)F)ccnc1CS(=O)c1nc2ccccc2[nH]1 (stereo not given)", "normalized growth": 1.04}
{"Molecule": "NCCCN", "normalized growth": 0.994}
{"Molecule": "O=c1c(O)cc([C@H]2Oc3cc(O)cc(O)c3C[C@H]2O)cc2c([C@H]3Oc4cc(O)cc(O)c4C[C@H]3O)cc(O)c(O)c12", "normalized growth": 1.01}

---

# Assay Text: chemical genetic growth profiling, strain panel (AID 1159580);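 also: tested at 20 µM; growth read once vehicle control cultures reached saturation at 30 °C; 1 = growth at the plate median or of vehicle wells; lower values mean less growth of the strain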
# Condition Set: S. cerevisiae deletion strains, growth OD, locus YNL183C, strain NPR1
The campaign covered roughly 5,500 compounds. About 2,000 (36%) were called active. About 18% were inconclusive and are not listed. No stated cut-off is given here; in the data, active means normalized growth mostly below about 0.91 (no sharp cut-off); inconclusive means no clear call, values can overlap the other calls; inactive means mostly above about 0.92. This is one part of the list.
Labels: active, inactive

{"Molecule": "CCC(C)n1ncn(-c2ccc(N3CCN(c4ccc(OC[C@H]5CO[C@](Cn6cncn6)(c6ccc(Cl)cc6Cl)O5)cc4)CC3)cc2)c1=O (stereo partly drawn)", "Cat": "active"}
{"Molecule": "N/C(=N/OC(=O)c1ccc([N+](=O)[O-])cc1)c1c(Cl)cccc1Cl", "Cat": "inactive"}
{"Molecule": "O=C(O)CCc1nc(-c2ccccc2)c(-c2ccccc2)o1", "Cat": "inactive"}
{"Molecule": "CC(C)c1cccc(C(C)C)c1O", "Cat": "inactive"}
{"Molecule": "NC(=O)c1ccccc1O", "Cat": "inactive"}
{"Molecule": "CC(C)(C)NCC(O)COc1cccc2c1CCCC2=O (stereo not drawn)", "Cat": "inactive"}
{"Molecule": "CC1(C)S[C@@H]2C(N3C(=O)[C@@H](c4ccccc4)NC3(C)C)C(=O)N2[C@H]1C(=O)O (stereo partly drawn)", "Cat": "inactive"}
{"Molecule": "CC(=O)O[C@@H]1CC2C(C)(CC[C@H](O)C2(C)C)C2CC[C@]3(C)C(=CC(=O)O[C@H]3c3ccoc3)C21C (stereo partly drawn)", "Cat": "inactive"}
{"Molecule": "O=C1Nc2ccccc2/C1=C\\c1cccc2ccccc12", "Cat": "inactive"}
{"Molecule": "NCCCN", "Cat": "inactive"}
{"Molecule": "NCCCC(O)(P(=O)(O)O)P(=O)(O)O", "Cat": "inactive"}
{"Molecule": "CCN(CC)[N+]([O-])=NO", "Cat": "inactive"}
{"Molecule": "CC(=O)NCCc1ccc(O)c(-c2c(O)c(O)c3c(c2O)C(=O)c2c(cc(O)c(C(=O)O)c2C(=O)O)C3=O)c1", "Cat": "inactive"}
{"Molecule": "COc1cc(C(=O)N2CCOCC2)cc(OC)c1OC", "Cat": "inactive"}
{"Molecule": "CCc1ccc2c(O)c3c(cc2c1C(=O)OC)C(=O)c1c(O)ccc(O)c1C3=O", "Cat": "inactive"}
{"Molecule": "CN(C)CC[C@H](c1ccc(Cl)cc1)c1ccccn1", "Cat": "inactive"}
{"Molecule": "CC1=CC(=O)C(C(C)C)=CC1=O", "Cat": "inactive"}
{"Molecule": "COC(=O)/C=C1/OC(c2ccc(OC)cc2)=CC1=O", "Cat": "active"}
{"Molecule": "O=c1cc(CSc2ccc(Cl)cc2)c2ccc(O)cc2o1", "Cat": "active"}
{"Molecule": "CC(=O)N1CCN(c2ccc(OCC3CO[C@](Cn4ccnc4)(c4ccc(Cl)cc4Cl)O3)cc2)CC1 (stereo partly drawn)", "Cat": "active"}
{"Molecule": "CO[C@@H]1[C@@H](OC(N)=O)[C@@H](O)[C@H](Oc2ccc3c(O)c(NC(=O)c4ccc(O)c(CC=C(C)C)c4)c(=O)oc3c2C)OC1(C)C", "Cat": "inactive"}
{"Molecule": "CSCCC(N)C(=O)NC(CC(C)C)C(=O)NC(Cc1ccccc1)C(=O)O (stereo not drawn)", "Cat": "inactive"}
{"Molecule": "CC(C)(C)NCC(O)COc1cccc2c1C[C@H](O)[C@H](O)C2 (stereo partly drawn)", "Cat": "inactive"}
{"Molecule": "CCn1nc(C(=O)O)c(=O)c2cc3c(cc21)OCO3", "Cat": "inactive"}
{"Molecule": "CC1(C)S[C@@H]2[C@H](NC(=O)C(C(=O)O)c3ccccc3)C(=O)N2[C@H]1C(=O)O (stereo partly drawn)", "Cat": "inactive"}
{"Molecule": "C[C@@H]1CC[C@@]23CCC4(C)[C@@](C=CC5[C@@]6(C)CCC(=O)C(C)(C)C6CC[C@]54C)(OC2=O)C3[C@H]1C (stereo partly drawn)", "Cat": "inactive"}
{"Molecule": "CCCc1nc(C)c2c(=O)[nH]c(-c3cc(S(=O)(=O)N4CCN(CC)CC4)ccc3OCC)nn12", "Cat": "inactive"}
{"Molecule": "N#Cc1nccnc1N1CCN(C(=O)Nc2cc(Cl)cc(Cl)c2)CC1", "Cat": "inactive"}
{"Molecule": "NS(=O)(=O)c1cc2c(cc1C(F)(F)F)NC(Cc1ccccc1)NS2(=O)=O (stereo not drawn)", "Cat": "inactive"}
{"Molecule": "CSc1nc(NC(C)C)nc(NC(C)C)n1", "Cat": "inactive"}
{"Molecule": "CCC(=O)OCC(=O)[C@@]1(OC(=O)CC)[C@@H](C)CC2C3CCC4=CC(=O)C=C[C@]4(C)C3(F)[C@@H](O)C[C@@]21C (stereo partly drawn)", "Cat": "inactive"}
{"Molecule": "COC(=O)NC(=S)Nc1ccccc1NC(=S)NC(=O)OC", "Cat": "inactive"}
{"Molecule": "O=C(OCc1ccccc1Br)c1cc([N+](=O)[O-])cc([N+](=O)[O-])c1", "Cat": "inactive"}
{"Molecule": "CC(C)Nc1nc(Cl)nc(NC(C)C)n1", "Cat": "inactive"}
{"Molecule": "O=C1Nc2ccccc2/C1=C\\c1c[nH]c2ccccc12", "Cat": "active"}
{"Molecule": "COP(N)(=O)SC (stereo not drawn)", "Cat": "inactive"}
{"Molecule": "C/C(=N/NC(N)=S)c1csc(-c2ccccc2)n1", "Cat": "inactive"}
{"Molecule": "CC(C)(C)NC(=S)N/N=C\\c1cc(Br)c(O)c(Br)c1", "Cat": "inactive"}
{"Molecule": "C[C@H]1[C@H](C)CC[C@]2(C(=O)O)CC[C@]3(C)C(=CCC4[C@@]5(C)C[C@@H](O)[C@H](O)[C@@](C)(CO)C5CC[C@]43C)[C@H]12 (stereo partly drawn)", "Cat": "inactive"}
{"Molecule": "CCC(=O)NCC[C@@H]1CCc2ccc3c(c21)CCO3", "Cat": "inactive"}
{"Molecule": "CC1CCCC(C)N1NC(=O)c1ccc(Cl)c(S(N)(=O)=O)c1 (stereo not drawn)", "Cat": "inactive"}
{"Molecule": "O=S(=O)(O)O", "Cat": "inactive"}
{"Molecule": "Cc1cc(Br)c(O)c(/C=N\\NC(=S)NC(C)(C)C)c1", "Cat": "inactive"}
